Subject Of Test: Epidermal growth factor receptor (Homo sapiens)
Assay Explanation: EGFR binders on small-molecule microarrays, primary screen, biochemical, small-molecule microarray, 635 nm fluorescence (AID 1104);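 also: score merges 667 nm emission intensity with spot signal to noise over triplicate slides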
Condition Set: EGFR binding, higher = more signal
Assign class by composite z-score: not lower than 0.3 means 1; lower than 0.3 means 0.

Consider the worked cases shown below.
Compound | Category Label
C=CCOC(=O)[C@H]1[C@@H]2C(=O)O[C@@H](c3ccccc3)[C@@H](c3ccccc3)N2[C@@H](c2ccc(OCCOC(=O)[C@H]3C[C@H]4C(=O)N5CCC[C@H]5C(=O)N4[C@H]3c3cccc(OCCO)c3)cc2)[C@]12C(=O)Nc1ccc(I)cc12 | 1
Cc1ccc(S[C@]2(C(=O)NCC(F)(F)F)CC(=O)N(Cc3ccccc3Cl)[C@@H]2c2ccc(CO)cc2I)cc1 | 0
CCOC(=O)[C@H](Cc1ccccc1)NC(=O)CCC1CC(OC(=O)NCc2ccc3c(c2)OCO3)CC2(CCCC(COC(=O)NCc3cccc(C(F)(F)F)c3)O2)O1 (some centres undefined) | 1
O=C1O[C@@H](c2ccccc2)[C@@H](c2ccccc2)N2[C@@H](c3ccc(OCCO)cc3)[C@]3(C(=O)Nc4ccccc43)[C@@H](C(=O)N3CCN(c4ncccn4)CC3)[C@H]12 | 1
C#CCCCON=C1C[C@@H](O)[C@@H](O)[C@@H]2[C@@H]3C(=O)N([C@@H](C)c4ccccc4)C(=O)[C@@H]3CC[C@H]12 | 1
CC(CCN1CCCCc2nc(C)c(C)cc21)=NOC(C)CN1CCCCc2nc(C)c(C)cc21 (centres undefined) | 1
CC(=O)OC[C@H]1O[C@H](CC=NOC[C@@H](C)[C@H](OCc2ccccc2)C(C)C)C=C[C@@H]1OC(C)=O | 0
C=C(COC)/C(=C/C[C@H](OC(=O)c1ccncc1)c1ccc(CO)o1)c1cc(C(=O)OC)ccc1OC | 0

## Task Is the recorded value of composite z-score equal to or greater than 0.3 for this compound? CO[C@H]([C@@H](C)[C@H](OC)c1ccccc1)[C@H](C)[C@@H](OC)[C@H](C)C(C)=O
## Result 0

## Task Assess whether reported composite z-score for CCc1cccc(NC(=O)O[C@H]2[C@H](OC(=O)Nc3ccc4c(c3)OCO4)[C@@H](OC(=O)Nc3ccc4c(c3)OCO4)[C@@H](OC)O[C@@H]2CO)c1 sits at 0.3 or higher.
## Result 1

## Task Has COCCCNC(=O)[C@@]1(C)c2ccccc2C(=O)N(Cc2ccc(OC(F)(F)F)cc2)[C@H]1c1ccc(CO)cc1 a recorded composite z-score greater than or equal to 0.3?
## Result 0

## Task Decide: composite z-score of O=C1[C@H]2[C@H]3[C@H](O)[C@H](O)CC(=NOCc4ccccc4)[C@H]3CC[C@H]2C(=O)N1c1cccc(Oc2ccccc2)c1 >= 0.3?
## Result 1

## Task Could you verify whether the entry COc1ccc(O[C@H]2C=C[C@@H](c3ccccc3)O[C@@H]2COC(=O)N2CCCCC2)cc1 shows composite z-score of no less than 0.3?
## Result 0

## Task Quick check, composite z-score >= 0.3? CN1C(=O)C2C=CC(C(O)c3ccc(I)cc3)N(NC(=O)OC(C)(C)C)C2C1=O (centres undefined)
## Result 0
